# MEASUREMENT NOTES: qHTS assay for small molecule agonists of the antioxidant response element (ARE) signaling pathway - cell viability counter screen (AID 743203); also: % is scaled to controls: 0 for no effect and ±100 for the full control effect; nearly all actives have a fitted effect of over 55% in size
# CONDITION: ARE-bla HepG2 viability, CellTiter-Glo luminescence, 16 h; series mostly up to 73.3 µM
# Excerpt: National Center for Advancing Translational Sciences [NCATS] NIH Chemical Genomics Center [NCGC] U.S. Environmental Protection Agency [EPA] National Institutes of Environmental Health Sciences [NIEHS] National Toxicology Program [NTP] U.S. Food and Drug Administration [FDA] Oxidative stress has been implicated in the pathogenesis of a variety of diseases ranging from cancer to neurodegeneration. […] The activation of the report gene under culture conditions can be detected by fluorescence intensity. […]
Inconclusive results are not listed. Active and inactive are the calls of the source. Calls follow the shape of the full dose curve.
VALUE TYPE: viability change, negative = cytotoxic

CCCCOC(=O)[C@@H](C)Oc1ccc(Oc2ccc(C(F)(F)F)cn2)cc1 = inactive
CCOC(=O)CCc1ccccc1 = inactive
CCCCCCCCCCCCCC(=O)OC = inactive
Cc1ccccc1OCC1CO1 (stereo unspecified) = inactive

## Input Field request: viability change, negative = cytotoxic | item: `CC(=O)OCCCc1ccccc1`
## Output inactive

## Input Item under review: `COc1ccc(OC)c(NC(=O)CC(C)=O)c1` . Reported viability change, negative = cytotoxic?
## Output inactive

## Input // lookup viability change, negative = cytotoxic for `COCCOCCOCCOC`
## Output inactive

====

# MEASUREMENT NOTES: qHTS assay to identify small molecule agonists of the androgen receptor (AR) signaling pathway in the presence of an antagonist - cell viability counter screen (AID 1259379);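 also: MDA-kb2 human breast cancer cells carrying an MMTV luciferase reporter; % is scaled to controls: 0 for no effect and ±100 for the full control effect; nearly all actives have a fitted effect of over 25% in size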
# CONDITION: MDA-kb2 viability, CellTiter-Fluor, 16 h; series mostly up to 92.4 µM
Inconclusive results are not listed. The source made the active and inactive calls. Calls come from the whole dose curve; as a rule, active = well fitted cell-killing curve with a large enough effect in the repeat runs; inconclusive = weak or mixed curves, or effect the other way; inactive = flat fitted curve, though single readings scatter.
VALUE TYPE: activity change, negative = cytotoxicity

Recorded results for 4 molecules are shown here.
OC(CCN1CCCCC1)(c1ccccc1)c1ccccc1 = inactive
O=C(O)Cc1cccc(-c2cc(CCCCCCc3ccc(O[C@H]4O[C@H](CO)[C@@H](O)[C@H](O)[C@@H]4O)c(-c4cccc(CC(=O)O)c4)c3)ccc2O[C@H]2O[C@H](CO)[C@@H](O)[C@H](O)[C@@H]2O)c1 = 1.29% [at 0.35 µM] (inactive)
CCCCOC(=O)[C@@H](C)Oc1ccc(Oc2ccc(C(F)(F)F)cn2)cc1 = inactive
O=C(c1ccc2c(c1)C(=O)OC2=O)c1ccc2c(c1)C(=O)OC2=O = inactive

Now look at this entry.
## Input What value of activity change, negative = cytotoxicity has been recorded for this entry: `NS(=O)(=O)c1ccc(Cl)c(S(N)(=O)=O)c1`
## Output inactive

====

# MEASUREMENT NOTES: qHTS assay to identify small molecule agonists of the NFkB signaling pathway - cell viability counter screen (AID 1159515); also: % is scaled to controls: 0 for no effect and ±100 for the full control effect; nearly all actives have a fitted effect of over 55% in size
# CONDITION: NFkB-bla ME-180 viability, CellTiter-Glo luminescence, 5 h; series mostly up to 61 µM
Inconclusive results are not listed. Calls of active or inactive are those of the source. Calls follow the shape of the full dose curve.
VALUE TYPE: activity, negative = cytotoxic

Completed entries (count: 10):
O=[Si]=O = inactive
C=C(C)C(=O)OC = inactive
CC1=NN(c2ccc(S(=O)(=O)O)cc2)C(=O)C1N=Nc1ccccc1 (stereo not given) = inactive
BrC/C=C/CBr = inactive
CCCCCCCCCOCC1CO1 (stereo not given) = inactive
Oc1ccccc1Cc1ccccc1O = inactive
O=C(O)c1ccc(OCCN2CCCCC2)cc1 = inactive
OCCCCCCCl = inactive
CNC(=O)NC = inactive
CCCCCC(=O)OCC = inactive

## Input activity, negative = cytotoxic for CCCCCCCCCCCCC1CO1 (stereo not given) ?
## Output inactive

## Input Endpoint output: activity, negative = cytotoxic of `CC(=O)c1ccc2c(c1)CCCC2` . Value?
## Output inactive

## Input Entry under review: `CC(C)=CC(C)(C)C` . Reported activity, negative = cytotoxic?
## Output inactive

## Input Which activity, negative = cytotoxic value is on record for `Cc1cc(O)c2c(c1)C(=O)c1cccc(O)c1C2=O` ?
## Output inactive

## Input Can you look up the measured activity, negative = cytotoxic of `Cc1ccc(S(=O)(=O)NC(=O)NC2CCCCCCC2)cc1` for me?
## Output inactive

## Input Fill in the blank: the reported activity, negative = cytotoxic of `NS(=O)(=O)c1ccccc1OC(F)(F)F` is ____.
## Output inactive

## Input Endpoint output: activity, negative = cytotoxic of `O=C(c1ccc2c(c1)C(=O)OC2=O)c1ccc2c(c1)C(=O)OC2=O` . Value?
## Output inactive

## Input Which activity, negative = cytotoxic value belongs to `Cc1cc(C)cc([N+](=O)[O-])c1` ?
## Output inactive

## Input Give the measured activity, negative = cytotoxic of `C[CH2][Ge]([Cl])([CH2]C)[CH2]C` .
## Output inactive

## Input Looking for the measured activity, negative = cytotoxic of `CCOC(=O)C(=O)c1csc(NC=O)n1` , can you help?
## Output inactive

## Input What value of activity, negative = cytotoxic has been recorded for this entry: CC(CC(=O)O)CC(C)(C)C (stereo not given)
## Output inactive

## Input activity, negative = cytotoxic for `CCOC(=O)C(C)(C)C` ?
## Output inactive

## Input Which activity, negative = cytotoxic is listed for `CNCc1ccccc1` ?
## Output inactive

## Input Please look up its activity, negative = cytotoxic: `CN(C1CCCCC1)S(=O)(=O)c1ccccc1N`
## Output inactive

## Input Look up activity, negative = cytotoxic for this compound: `Cc1ccccc1N1CCN(CCc2nnc3n2CCCC3)CC1`
## Output inactive

## Input What does the record list as activity, negative = cytotoxic for `Cc1nc([N+](=O)[O-])cn1-c1ccc([N+](=O)[O-])cc1` ?
## Output inactive

## Input What value of activity, negative = cytotoxic has been recorded for this entry: CN[C@@H]1[C@@H](O)[C@@H](O[C@@H]2[C@H](O)[C@H](O[C@H]3OC(CN)=CC[C@H]3N)[C@@H](N)C[C@H]2N)OCC1(C)O (stereo not given in full)
## Output inactive

## Input Name the recorded activity, negative = cytotoxic for `Nc1cc(Cl)cc(S(=O)(=O)O)c1O` .
## Output inactive
